# Measurement Notes: chemical genetic growth profiling, strain panel (AID 1159580);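 note: tested at 20 µM; growth read once vehicle control cultures reached saturation at 30 °C; 1 = growth at the plate median or of vehicle wells; lower values mean less growth of the strain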
# Reported Conditions: S. cerevisiae deletion strains, growth OD, locus YLR384C, strain iki3
In all, about 5,500 compounds went through this assay and about 2,000 (36%) were called active. Roughly 18% stayed inconclusive and do not appear here. Cut-off read from the data, not from the text of the source: active = normalized growth mostly below about 0.91 (no sharp cut-off); inconclusive = no clear call, values can overlap the other calls; inactive = mostly above about 0.92. This is one part of the list.
Labels: true (1) for active, false (0) for inactive

Compound: CCC(=O)O[C@H]1CCC2C3CCc4cc(O)ccc4C3CC[C@@]21C (stereo not given in full)
Group Label: false (0)
--
Compound: CCCCC/C=C\C/C=C\C/C=C\C/C=C\CCCC(=O)O
Group Label: false (0)
--
Compound: Cc1nccc2c1[nH]c1ccccc12
Group Label: false (0)
--
Compound: C[N+]1(C)C2CC[C@H]1CC(OC(=O)C(O)c1ccccc1)C2 (stereo not given in full)
Group Label: false (0)
--
Compound: c1ccc2c(c1)[nH]c1cnccc12
Group Label: false (0)
--
Compound: COc1c(O)cc(O)cc1O
Group Label: false (0)
--
Compound: O=C1c2ccccc2C(=O)c2c(O)c(O)cc(O)c21
Group Label: true (1)
--
Compound: CC(=O)OC1CCC2C3CCc4cc(O)ccc4C3CCC12C (stereo not given)
Group Label: false (0)
--
Compound: COc1cc(O)c(C(C)=O)c(OC)c1
Group Label: false (0)
--
Compound: O=c1ccc2ccc(O)c(O)c2o1
Group Label: false (0)
--
Compound: O=C1c2ccc(O)c(O)c2C(=O)c2c(O)ccc(O)c21
Group Label: true (1)
--
Compound: CC(C(=O)O)c1ccc(N2Cc3ccccc3C2=O)cc1 (stereo not given)
Group Label: false (0)
--
Compound: CC(=O)O[C@H]1CC2CCC3C(CC[C@@]4(C)C3C[C@H]([N+]3(C)CCCCC3)[C@@H]4OC(C)=O)[C@@]2(C)C[C@@H]1[N+]1(C)CCCCC1 (stereo not given in full)
Group Label: false (0)
--
Compound: CCCCCN=C(N)N/N=C\c1c[nH]c2ccc(OC)cc12
Group Label: false (0)
--
Compound: COP(=S)(OC)SCn1nnc2ccccc2c1=O
Group Label: false (0)
--
Compound: COc1ccc2[nH]cc(CCNC(C)=O)c2c1
Group Label: false (0)
--
Compound: COc1ccc2c(=O)c(-c3cc4c(cc3OC)OCO4)coc2c1
Group Label: false (0)
--
Compound: Nc1ncnc2c1ncn2[C@@H]1O[C@H](CO)[C@@H](O)[C@@H]1O
Group Label: false (0)
--
Compound: COc1cc(OC)c(C(C)=O)c(O)c1C
Group Label: false (0)
--
Compound: O=c1c(-c2ccc3c(c2)OCO3)coc2cc(O)ccc12
Group Label: false (0)
--
Compound: CCCCC(=O)O[C@H]1CCC2C3CCc4cc(O)ccc4C3CC[C@@]21C (stereo not given in full)
Group Label: false (0)
--
Compound: Fc1ccc(C(c2ccc(F)cc2)N2CCN(C/C=C/c3ccccc3)CC2)cc1
Group Label: false (0)
--
Compound: O=C1c2ccccc2C(=O)c2c1ccc(O)c2O
Group Label: true (1)
--
Compound: C[C@]12CCC3c4ccc(O)cc4CCC3C1CC[C@@H]2OC(=O)CCC1CCCC1 (stereo not given in full)
Group Label: false (0)
--
Compound: O=c1[nH]cnc2nc[nH]c12
Group Label: false (0)

* * *

Each entry below lists one item and its recorded normalized growth value.
# Measurement Notes: chemical genetic growth profiling, strain panel (AID 1159580);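 note: tested at 20 µM; growth read once vehicle control cultures reached saturation at 30 °C; 1 = growth at the plate median or of vehicle wells; lower values mean less growth of the strain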
# Reported Conditions: S. cerevisiae deletion strains, growth OD, locus YNL128W, strain TEP1, active compounds read low
Hit rate of the full screen: of about 5,500 compounds, about 2,000 (36%) were called active. Inconclusive results (about 18%) are left out. Some of the results follow.

Compound: CCOc1nc2cccc(C(=O)OC(C)OC(=O)OC3CCCCC3)c2n1Cc1ccc(-c2ccccc2-c2nn[nH]n2)cc1 (stereo not given)
normalized growth: 0.995
//
Compound: Cn1cnc2c(NC3CCCC3)ncnc21
normalized growth: 1
//
Compound: CC(=O)SC1CC2=CC(=O)CC[C@]2(C)C2CC[C@@]3(C)C(CC[C@@]34CCC(=O)O4)C12 (stereo not given in full)
normalized growth: 0.986
//
Compound: CCCc1nc(C(C)(C)O)c(C(=O)OCc2oc(=O)oc2C)n1Cc1ccc(-c2ccccc2-c2nn[nH]n2)cc1
normalized growth: 1.02
//
Compound: CCCCCN=C(N)N/N=C\c1c[nH]c2ccc(OC)cc12
normalized growth: 0.995
//
Compound: CCOC(=O)c1csc(N/N=C2/CCCc3ccccc32)n1
normalized growth: 0.971
//
Compound: Cn1nnnc1SCC1=C(C(=O)O)N2C(=O)C(NC(=O)C(OC=O)c3ccccc3)C2SC1 (stereo not given)
normalized growth: 1.02
//
Compound: CCCCC(=O)O[C@H]1CCC2C3CCc4cc(O)ccc4C3CC[C@@]21C (stereo not given in full)
normalized growth: 0.982
//
Compound: C[C@]12CCC3c4ccc(O)cc4CCC3C1CC[C@@H]2OC(=O)CCC1CCCC1 (stereo not given in full)
normalized growth: 0.976
//
Compound: NCCNC(=O)c1ncsc1-c1cccc(F)c1
normalized growth: 0.99
//
Compound: COc1cc(O)c(C(=O)O)c(O)c1
normalized growth: 1
//
Compound: COc1cc(OC)cc(OC)c1
normalized growth: 1.02
//
Compound: C[C@]12C=CC(=O)C=C1CC[C@H]1[C@@H]3C[C@@H](O)[C@](O)(C(=O)CO)[C@@]3(C)C[C@H](O)[C@@]12F
normalized growth: 1.01
//
Compound: COC(=O)c1csc2c(C(F)(F)F)cc(N3CCN(S(=O)(=O)c4ccc(C)cc4)CC3)nc12
normalized growth: 1
//
Compound: N#C/C(=N/Nc1ccc(C(F)(F)F)cc1)C(=O)C1CC1
normalized growth: 0.956
//
Compound: O=C1c2ccc(O)c(O)c2C(=O)c2c(O)ccc(O)c21
normalized growth: 1.01
//
Compound: COP(=S)(OC)SCn1nnc2ccccc2c1=O
normalized growth: 0.954
//
Compound: CCCCC(=O)N(Cc1ccc(-c2ccccc2-c2nn[nH]n2)cc1)[C@H](C(=O)O)C(C)C
normalized growth: 0.969
//
Compound: C/C=C(\C)C(=O)OC1[C@@H]2C=C3C4CC(=O)O[C@@H](c5ccoc5)[C@]4(C)CCC3[C@@](C)(C2=O)[C@@H](C(O)C(=O)OC)C1(C)C (stereo not given in full)
normalized growth: 1
//
Compound: CC(=O)Oc1ccc2c(c1)CCC1C2CC[C@@]2(C)C1CC[C@@H]2OC(C)=O (stereo not given in full)
normalized growth: 0.986

* * *

# Measurement Notes: chemical genetic growth profiling, strain panel (AID 1159580);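 note: tested at 20 µM; growth read once vehicle control cultures reached saturation at 30 °C; 1 = growth at the plate median or of vehicle wells; lower values mean less growth of the strain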
# Reported Conditions: S. cerevisiae deletion strains, growth OD, locus YNR052C, strain pop2, active compounds read low
Screen size: about 5,500 compounds; about 2,000 (36%) were called active. Inconclusive results (about 18%) are left out. Some of the results follow.
Each entry below lists one item and its recorded normalized growth value.
Test Readout: normalized growth

Molecule: CC(C(=O)O)c1ccc(N2Cc3ccccc3C2=O)cc1 (configuration not stated)
Test Readout: normalized growth
Recorded Result: 0.989
//
Molecule: COc1cc2ccc(=O)oc2c2ccoc12
Test Readout: normalized growth
Recorded Result: 0.925
//
Molecule: O=C1OC(=O)C2C3CCC(O3)C12 (configuration not stated)
Test Readout: normalized growth
Recorded Result: 0.983
//
Molecule: O=C1c2ccccc2C(=O)c2c1ccc(O)c2O
Test Readout: normalized growth
Recorded Result: 0.218
//
Molecule: CCCCCN=C(N)N/N=C\c1c[nH]c2ccc(OC)cc12
Test Readout: normalized growth
Recorded Result: 1.03
//
Molecule: C[C@]12CCC3c4ccc(O)cc4CCC3C1CC[C@@H]2OC(=O)CCC1CCCC1 (some centres not stated)
Test Readout: normalized growth
Recorded Result: 1.01
//
Molecule: CSCCC(NC=O)C(=O)NC(CC(C)C)C(=O)NC(Cc1ccccc1)C(=O)O (configuration not stated)
Test Readout: normalized growth
Recorded Result: 1
//
Molecule: Cc1cc(O)c2c(c1O)C(=O)c1c(O)cc(C)c(O)c1C2=O
Test Readout: normalized growth
Recorded Result: 0.98
//
Molecule: CCCC(=O)Nc1ncnc2c1ncn2C1O[C@@H]2COP(=O)(O)O[C@H]2[C@H]1OC(=O)CCC (some centres not stated)
Test Readout: normalized growth
Recorded Result: 1.02
//
Molecule: CC(=O)Oc1ccc2c(c1)CCC1C2CC[C@@]2(C)C1CC[C@@H]2OC(C)=O (some centres not stated)
Test Readout: normalized growth
Recorded Result: 0.985
//
Molecule: OCCN1CCN(CCCN2c3ccccc3Sc3ccc(Cl)cc32)CC1
Test Readout: normalized growth
Recorded Result: 1
//
Molecule: C/C=C(\C)C(=O)OC1[C@@H]2C=C3C4CC(=O)O[C@@H](c5ccoc5)[C@]4(C)CCC3[C@@](C)(C2=O)[C@@H](C(O)C(=O)OC)C1(C)C (some centres not stated)
Test Readout: normalized growth
Recorded Result: 1.03
//
Molecule: N#Cc1ccc2c(c1)N(CCCN1CCC(O)CC1)c1ccccc1S2
Test Readout: normalized growth
Recorded Result: 1.02
//
Molecule: CC1(C)S[C@@H]2[C@H](NC(=O)COc3ccccc3)C(=O)N2[C@H]1C(=O)O
Test Readout: normalized growth
Recorded Result: 1.01
//
Molecule: COC(=O)C1=CO[C@@H](O[C@@H]2O[C@H](CO)[C@@H](O)[C@H](O)[C@H]2O)[C@@H]2[C@@H](C)[C@@H](O)C[C@H]12
Test Readout: normalized growth
Recorded Result: 0.997
//
Molecule: O=c1[nH]cnc2nc[nH]c12
Test Readout: normalized growth
Recorded Result: 0.978
//
Molecule: C[C@H]1C(=O)O[C@@H]2CCN3CC=C(COC(=O)[C@](C)(O)[C@]1(C)O)[C@H]23
Test Readout: normalized growth
Recorded Result: 0.987
//
Molecule: COc1c2occc2cc2ccc(=O)oc12
Test Readout: normalized growth
Recorded Result: 0.978
//
Molecule: CN1Cc2c(N)cccc2C(c2ccccc2)C1 (configuration not stated)
Test Readout: normalized growth
Recorded Result: 1.02
//
Molecule: CCN(CC)CCNC(=O)COc1ccc(OC)cc1
Test Readout: normalized growth
Recorded Result: 0.984
//
Molecule: COC(=O)C[C@H]1C(C)(C)C(OC(C)=O)[C@]2(O)C=C3C4CC(=O)O[C@@H](c5ccoc5)[C@]4(C)CCC3[C@@]1(C)C2=O (some centres not stated)
Test Readout: normalized growth
Recorded Result: 1.01
//
Molecule: Nc1ncnc2nc[nH]c12
Test Readout: normalized growth
Recorded Result: 0.954
